Reported CLh is given for each of the following molecules.
METHOD_NOTES: Human microsomal clearance assay
Format: in vitro ADME
RUN_CONDITIONS: human, 1 μM, pH 7.4
REPORTED_PROPERTY: CLh (mL/min/kg)

| MOLECULE | REPORTED_PROPERTY | MEASURED_VALUE |
| --- | --- | --- |
| COC(=O)C1=C(CN2[C@H]3CC[C@]2(C(=O)O)COC3)NC(c2nccs2)=N[C@H]1c1ccc(F)cc1Cl | CLh | 0 |
| CCOC(=O)C1=C(CN2[C@@H]3COC[C@H]2C[C@H](CC(=O)O)C3)NC(c2nccs2)=N[C@H]1c1ccc(F)c(F)c1Cl | CLh | 2.4 |
| COC(=O)C1=C(CN2C3COCC2CC(CC(=O)O)C3)NC(c2nccs2)=N[C@H]1c1ccccc1Br (stereo partly drawn) | CLh | 1.7 |

----------
METHOD_NOTES: Human microsomal clearance assay
Type: in vitro ADME
RUN_CONDITIONS: human, 1 μM, pH 7.4
Lab note: compare CLh against 3 mL/min/kg. Equal or greater, write true (1). Smaller, write false (0).

| COMPOUND | CLASSIFICATION |
| --- | --- |
| COC(=O)C1=C(CN2[C@@H]3COC[C@H]2C[C@H](CC(=O)O)C3)NC(c2nccs2)=N[C@H]1c1ccc(F)cc1Br | false (0) |
| CCOC(=O)C1=C(CN2C3COCC2C(F)(F)[C@H](CC(=O)O)C3)NC(c2nccs2)=N[C@H]1c1ccc(F)c(F)c1C (stereo partly shown) | true (1) |
| COC(=O)C1=C(CN2C3CC(F)(F)C2C[C@](O)(CC(=O)O)C3)NC(c2nccs2)=N[C@H]1c1ccc(F)cc1Cl (single isomer, unassigned) | false (0) |
| COC(=O)C1=C(CN2C3COCC2CN(C(=O)CO)C3)NC(c2nccs2)=N[C@H]1c1ccc(F)cc1Cl | true (1) |
| COC(=O)C1=C(CN2[C@@H]3C[C@@H](CC(=O)O)C[C@H]2C(F)(F)C3)NC(c2nccs2)=N[C@H]1c1ccc(F)c(F)c1C | true (1) |
| CCOC(=O)C1=C(CN2[C@H]3C[C@@H](CC(=O)O)C[C@@H]2C(F)(F)C3)NC(c2nccs2)=N[C@H]1c1ccccc1Br | false (0) |
| CCOC(=O)C1=C(CN2C3CC(C(=O)O)CC2C(F)(F)C3)NC(c2nccs2)=N[C@H]1c1cccc(F)c1Cl (stereo partly shown) | true (1) |
| CCOC(=O)C1=C(CN2C3COCC2C(F)(F)[C@@H](CC(=O)O)C3)NC(c2nccs2)=N[C@H]1c1ccc(F)c(F)c1C (stereo partly shown) | false (0) |
| COC(=O)C1=C(CN2[C@@H]3COC[C@H]2C[C@H](CC(=O)O)C3)NC(c2nccs2)=N[C@H]1c1cccc(F)c1Br | false (0) |
| COC(=O)C1=C(CN2C3COCC2CC(OC(C)=O)C3)NC(c2nccs2)=N[C@H]1c1ccc(F)cc1Cl (stereo partly shown) | false (0) |
| CCOC(=O)C1=C(CN2C3COCC2CC(CC(=O)O)C3)NC(c2nccs2)=N[C@H]1c1ccc(F)c(F)c1 (stereo partly shown) | false (0) |
| COC(=O)C1=C(CN2[C@@H]3COC[C@H]2C[C@H](CC(=O)O)C3)NC(c2nccs2)=N[C@H]1c1cccc(F)c1Cl | false (0) |
| COC(=O)C1=C(CN2C3COCC2CC(NS(C)(=O)=O)C3)NC(c2nccs2)=N[C@H]1c1ccc(F)cc1Cl (stereo partly shown) | true (1) |
| COC(=O)C1=C(CN2C3COCC2CN(S(N)(=O)=O)C3)NC(c2nccs2)=N[C@H]1c1ccc(F)cc1Cl | true (1) |
| COC(=O)C1=C(CN2[C@@H]3CC[C@@]2(C(=O)O)COC3)NC(c2nccs2)=N[C@H]1c1ccc(F)c(F)c1C | false (0) |
| COC(=O)C1=C(CN2[C@@H]3COC[C@H]2C[C@H](NC(C)=O)C3)NC(c2nccs2)=N[C@H]1c1ccc(F)cc1Cl | true (1) |
| COC(=O)C1=C(CN2C3COCC2CC(C(=O)O)C3)NC(c2nccs2)=N[C@H]1c1ccc(F)cc1Br (stereo partly shown) | false (0) |
| COC(=O)C1=C(CN2[C@@H]3COC[C@H]2CN(C(=O)C(C)(C)C(=O)O)C3)NC(c2nccs2)=N[C@H]1c1ccc(F)cc1Cl | true (1) |
| CCOC(=O)C1=C(CN2[C@@H]3COC[C@H]2C[C@H](CC(=O)O)C3)NC(c2nccs2)=N[C@H]1c1ccccc1Cl | false (0) |
| CCOC(=O)C1=C(CN2[C@@H]3COC[C@H]2C[C@H](CC(=O)O)C3)NC(c2nccs2)=N[C@H]1c1ccc(F)cc1Br | false (0) |
| COC(=O)C1=C(CN2[C@H]3C[C@@H](CC(=O)O)C[C@@H]2C(F)(F)C3)NC(c2nccs2)=N[C@H]1c1cccc(F)c1Br | false (0) |
| COC(=O)C1=C(CN2[C@H]3C[C@H](CC(=O)O)C[C@@H]2C(F)(F)C3)NC(c2nccs2)=N[C@H]1c1ccc(F)cc1Cl | true (1) |
| COC(=O)C1=C(CN2[C@@H]3C[C@H](CC(=O)O)C[C@H]2C(F)(F)C3)NC(c2nccs2)=N[C@H]1c1ccc(F)c(F)c1 | false (0) |
| COC(=O)C1=C(CN2[C@H]3C[C@@H](CC(=O)O)C[C@@H]2C(F)(F)C3)NC(c2nccs2)=N[C@H]1c1ccccc1Cl | true (1) |
